# MEASUREMENT_TARGET: human KDR enzyme (Homo sapiens, UniProt P35968)
# Construct: The cytoplasmic domain of human KDR enzyme is cloned in the form of a GST fusion; GST; made in house; host or cells: SF21 insect cells (baculovirus, pFastBac)
# Sequence (P35968 786-1356 limits assumed): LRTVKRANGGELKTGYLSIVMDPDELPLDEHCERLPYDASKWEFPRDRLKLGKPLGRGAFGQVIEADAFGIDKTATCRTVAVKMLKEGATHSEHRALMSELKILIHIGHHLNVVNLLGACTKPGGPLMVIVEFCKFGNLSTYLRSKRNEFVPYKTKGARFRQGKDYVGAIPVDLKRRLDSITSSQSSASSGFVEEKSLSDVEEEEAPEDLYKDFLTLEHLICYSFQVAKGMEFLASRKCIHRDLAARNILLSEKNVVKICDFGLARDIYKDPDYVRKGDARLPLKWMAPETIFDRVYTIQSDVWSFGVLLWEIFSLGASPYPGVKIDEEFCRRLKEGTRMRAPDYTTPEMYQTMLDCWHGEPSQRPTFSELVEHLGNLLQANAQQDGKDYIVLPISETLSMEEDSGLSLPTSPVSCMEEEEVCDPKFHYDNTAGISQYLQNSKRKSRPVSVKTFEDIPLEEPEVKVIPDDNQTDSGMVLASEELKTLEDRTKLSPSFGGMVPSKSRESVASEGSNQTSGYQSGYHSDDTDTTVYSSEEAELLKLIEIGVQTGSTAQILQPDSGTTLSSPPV
# ASSAY_NAME: Phosphorylation of the substrate PLCγ by the enzyme KDR in vitro (flashplate technique)
# Assay type: biochemical
# MEASUREMENT_PARAMETERS: Table VII, degrees of activity by IC50 range; read-out: Activity
Field: IC50. Provide a value for each of the compounds that follow.

State its IC50 for this compound: O=C(NCc1cccc2ccccc12)c1ccc2[nH]c(-c3n[nH]c4ccccc34)nc2c1 [Example 32]
0.3 to 3 µM

In one line, give reported IC50 of the entry O=C(NCc1cccnc1)c1cccc2nc(-c3n[nH]c4ccccc34)[nH]c12 [Example 80] .
0.3 to 3 µM

Find the measured IC50 of Cc1ccc(C(=O)COc2cc(-c3nc4ccccc4[nH]3)[nH]n2)cc1 [Example 198] and report it.
> 3 µM

Name the recorded IC50 of the item O=C(Oc1cc(-c2nc3ccccc3[nH]2)[nH]n1)C1CCCC1 [Example 223] in your answer.
> 3 µM

Please list IC50 recorded for the compound O=S(=O)(Oc1cc(-c2nc3ccccc3[nH]2)[nH]n1)c1cccc(Cl)c1Cl [Example 194]
> 3 µM

Tell me IC50 reported for O=C(Oc1cc(-c2nc3ccccc3[nH]2)[nH]n1)C(F)(F)C(F)(F)C(F)(F)F [Example 222]
> 3 µM

Provide IC50 value for the following compound: O=C(NCc1ccoc1)c1cccc2nc(-c3n[nH]c4ccccc34)[nH]c12 [Example 90]
0.3 to 3 µM

Write down IC50 measured for item Cc1cc(CNC(=O)c2ccc3[nH]c(-c4n[nH]c5ccccc45)nc3c2)c(C)o1 [Example 53]
0.3 to 3 µM

Specify IC50 for O=C(NCc1ccc(-c2ccc(Cl)cc2)cc1)c1ccc2[nH]c(-c3n[nH]c4ccccc34)nc2c1 [Example 162] and stop.
> 3 µM

# return recorded IC50 for entry O=C(NCc1ccc(Br)cc1)c1ccc2[nH]c(-c3n[nH]c4ccccc34)nc2c1 [Example 30]
< 0.3 µM

Could you please provide reported IC50 for c1ccc2[nH]c(-c3cc(OCCN4CCCCC4)n[nH]3)nc2c1 [Example 196] ? Thanks!
> 3 µM

Respond only with IC50 recorded for COc1cccc(CNC(=O)c2ccc3[nH]c(-c4n[nH]c5ccccc45)nc3c2)c1 [Example 40]
0.3 to 3 µM

Return value of IC50 for input CSc1ccccc1CNC(=O)c1cccc2nc(-c3n[nH]c4ccccc34)[nH]c12 [Example 89] , no commentary.
< 0.3 µM

Return the recorded IC50 value; entry: COc1ccc(CNC(=O)c2ccc3[nH]c(-c4n[nH]c5ccccc45)nc3c2)cn1 [Example 180]
< 0.3 µM

Please indicate IC50 recorded for O=C(NCc1ccc(F)c(F)c1)c1ccc2[nH]c(-c3n[nH]c4ccccc34)nc2c1 [Example 160]
0.3 to 3 µM

Could you please provide reported IC50 for CC(C)NC(=O)c1ccc2[nH]c(-c3n[nH]c4ccccc34)nc2c1 [Example 149] ? Thanks!
0.3 to 3 µM

Recall and state the measured IC50 for CN(C)c1ccc(CNC(=O)c2cccc3nc(-c4n[nH]c5ccccc45)[nH]c23)cc1 [Example 78] .
> 3 µM

Please supply the value of reported IC50 for the item O=S(=O)(Cc1ccccc1COc1cc(-c2nc3ccccc3[nH]2)[nH]n1)c1ccccc1 [Example 191]
0.3 to 3 µM

Look up and state reported IC50 for COc1cccc(-c2ccc3nc(-c4[nH]nc5ccccc45)[nH]c3c2)c1 [Example 114]
0.3 to 3 µM

Please look at this compound and report its IC50: O=C(NCc1ccc(Cl)cc1)c1ccc2[nH]c(-c3n[nH]c4ccccc34)nc2c1 [Example 168]
< 0.3 µM

Hello, please tell me recorded IC50 for this one: OCc1ccc(-c2ccc3nc(-c4[nH]nc5ccccc45)[nH]c3c2)cc1 [Example 141]
0.3 to 3 µM

Recall and state the measured IC50 for O=C(NCc1ccc([N+](=O)[O-])cc1)c1ccc2[nH]c(-c3n[nH]c4ccccc34)nc2c1 [Example 37] .
< 0.3 µM

Look up and report measured IC50 for this entry: O=C1CCc2cc(C(=O)COc3cc(-c4nc5ccccc5[nH]4)[nH]n3)ccc2N1 [Example 209]
> 3 µM

Fill in IC50 for record O=C(NCc1ccccc1F)c1ccc2[nH]c(-c3n[nH]c4ccccc34)nc2c1 [Example 165]
> 3 µM

Return reported IC50. Input compound: Cc1cc(Cl)ccc1CNC(=O)c1ccc2[nH]c(-c3n[nH]c4ccccc34)nc2c1 [Example 169]
< 0.3 µM

Write down IC50 measured for item O=C(Oc1cc(-c2nc3ccccc3[nH]2)[nH]n1)c1cccs1 [Example 228]
> 3 µM

Tell me its IC50 given O=C(COCc1ccccc1)Oc1cc(-c2nc3ccccc3[nH]2)[nH]n1 [Example 216] as the entry.
> 3 µM

Report IC50, nothing else, for this compound: Cn1cc(CNC(=O)c2ccc3[nH]c(-c4n[nH]c5ccccc45)nc3c2)cn1 [Example 51]
0.3 to 3 µM

Assign IC50 to the following record: O=C(COc1cc(-c2nc3ccccc3[nH]2)[nH]n1)c1ccc(-c2ccccc2)cc1 [Example 200]
> 3 µM
